Test system: HIV long terminal repeat (LTR) promotor
procedure.summary: Inhibition of reporter gene (alkaline phosphatase) expression directed by HIV-LTR promotor in 293-EBNA cells
Assay type: cell-based
experimental.parameters: Human immunodeficiency virus 1; reporter gene directed by HIV-LTR promotor in 293-EBNA cells; FIGS. 17, 19, 21
observable: IC50

Reference set, count: 5
Please report the recorded IC50 for CCCCCCN(C)CCCCCCCCCCCn1c(=O)c2c(ncn2C)n(C)c1=O .
< 10 µM

Input CCCCCCNCCCCCCCCCCCn1c(=O)c2c(ncn2C)n(C)c1=O
< 10 µM

Input CCCCCCCCCCCCCNCCCCCCCCCCCn1c(=O)c2c(ncn2C)n(C)c1=O
< 4 µM

Input CCCCCCCCNCCCCCCCCCCCn1c(=O)c2c(ncn2C)n(C)c1=O
~2.5 µM

Input COc1cc(CNCCCCCCCCCCCn2c(=O)c3c(ncn3C)n(C)c2=O)cc(OC)c1OC
< 25 µM

New cases:
Please report the recorded IC50 for CCCCCCCCCCCCCCCCNCCCCCCCCCCCn1c(=O)c2c(ncn2C)n(C)c1=O .
< 10 µM

Input CCCCCCN(CCCCCC)CCCCCCCCCCCn1c(=O)c2c(ncn2C)n(C)c1=O
< 20 µM

Input CCCCCCCCCCCCN(C)CCCCCCCCCCCn1c(=O)c2c(ncn2C)n(C)c1=O
< 10 µM

----------
Test system: thymocytes
procedure.summary: Thymocyte proliferation and activation, co-stimulated with Con A and IL-2
Format: cell-based, Balb/C mice
experimental.parameters: Mus musculus, 2 h, compound added two hours prior, FIGS. 6-11
observable: IC50

Please report the recorded IC50 for CCCCCCCCCCCCN(C)CCCCCCCCCCCn1c(=O)c2c(ncn2C)n(C)c1=O .
260 nM

Now look at this one.
Please report the recorded IC50 for CCCCCCCCCCCNCCCCCCn1c(=O)c2c(ncn2C)n(C)c1=O .
2300 nM
